I'd appreciate it if you could supply EC50 values for the items below.
Target: Keap1 (Homo sapiens (Human), UniProt Q14145)
Sequence (Q14145 whole entry): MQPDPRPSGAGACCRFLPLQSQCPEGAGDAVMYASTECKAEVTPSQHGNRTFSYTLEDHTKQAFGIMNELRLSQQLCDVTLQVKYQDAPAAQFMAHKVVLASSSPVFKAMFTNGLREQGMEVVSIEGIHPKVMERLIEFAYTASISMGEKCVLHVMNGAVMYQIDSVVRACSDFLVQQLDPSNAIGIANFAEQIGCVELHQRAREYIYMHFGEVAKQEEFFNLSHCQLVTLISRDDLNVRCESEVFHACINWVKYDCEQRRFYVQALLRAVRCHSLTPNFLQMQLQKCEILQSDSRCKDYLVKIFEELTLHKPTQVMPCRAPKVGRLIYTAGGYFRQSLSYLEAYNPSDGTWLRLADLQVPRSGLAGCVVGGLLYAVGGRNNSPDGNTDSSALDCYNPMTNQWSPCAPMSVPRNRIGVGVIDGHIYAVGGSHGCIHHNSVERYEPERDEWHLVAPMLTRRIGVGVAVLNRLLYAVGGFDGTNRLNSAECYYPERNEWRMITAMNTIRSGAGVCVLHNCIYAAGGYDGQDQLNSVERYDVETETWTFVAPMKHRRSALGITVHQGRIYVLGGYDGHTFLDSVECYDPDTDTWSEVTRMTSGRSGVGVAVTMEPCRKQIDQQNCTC
Assay: HEK293 ARE luciferase assay
Conditions: HEK-293 ARE firefly luciferase transiently transfected cells; 18 h incubation; mean of 1 to 20 individual measurements
Answers are plain numbers, in nM.

MOLECULE: COC1(c2cccc(-c3cnc(C)nc3)n2)C=C(C#N)C(=O)C2(CC2)C1 (stereo not drawn) [Compound 128]
EC50 / nM: 145

Below is a list of molecules. For each, state its recorded EC50.
1. CCOC1(c2ccc(F)cn2)C=C(C#N)C(=O)C(C)(C)C1 (single isomer, unassigned) [Compound 37]
2. COC1(c2ncc(F)cc2-c2cncc(S(C)(=O)=O)c2)C=C(C#N)C(=O)C(C)(C)C1 (single isomer, unassigned) [Compound 235]

Output line:
86
79

Where these numbers come from: patent US11479539B2
